# IC50 annotations
- Study target: Human ST2-fc (human) (UniProt Q01638)
- Test protocol: competition ELISA, coated ST2-fc, competitor IL33-his
Please respond with the number in µg/mL and leave the unit unwritten.

Worked cases, answers included:
[[record]]
binder = "5888-116-H1L1 (antibody, human IgG4 S228P, kappa, V domains shown) VH: QVQLVQSGAEVKKPGASVKVSCKASGYTFTDSEMYWVRQAPGQGLEWMGAIDPETGDTAFNQKFKGRVTMTADKSTSTAYMELSSLRSEDTAVYYCTRAFDNDNDDGFAYWGQGTMVTVSS VL: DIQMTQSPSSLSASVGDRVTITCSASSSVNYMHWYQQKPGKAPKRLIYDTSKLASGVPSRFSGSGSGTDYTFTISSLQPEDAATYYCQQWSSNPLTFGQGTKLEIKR"
measured_value = 0.486

[[record]]
binder = "5888-153-H0L1 (antibody, human IgG4 S228P, kappa, V domains shown, Humanized antibody) VH: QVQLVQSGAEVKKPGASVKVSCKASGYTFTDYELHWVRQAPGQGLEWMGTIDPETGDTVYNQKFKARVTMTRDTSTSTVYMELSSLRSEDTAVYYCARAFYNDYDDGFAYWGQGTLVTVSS VL: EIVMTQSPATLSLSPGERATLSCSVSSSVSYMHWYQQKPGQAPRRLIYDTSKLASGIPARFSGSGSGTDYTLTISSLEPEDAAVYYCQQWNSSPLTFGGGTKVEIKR"
measured_value = 0.3


Query binder follows.
Request: What does the data say about its IC50? Entry: 5887-41H+L (antibody, V domains shown, murine antibody) VH: DVQLQQSGPGLVKPSQSLSLTCTVTGYSITSDYAWDWIRQFPGNKLEWMGYIRYSGDTYYNPSLKSRISITRDTSKNQFFLQLNSVTTEDTATYYCATTMMDTMDYWGQGTSVTVSS VL: DIVLTQSPASLTVSLGQRATISCRASKSVSTSGNSYMHWYQQKPGQPPKLLIYLASNLESGVPARFSGSGSGTDFTLNIHPVEEEDAATYYCQHSREFPLTFGAGTKLELK
Response: 1.29
